Target: TGF-beta receptor type-2 (Homo sapiens, UniProt P37173)
Sequence (P37173 whole entry): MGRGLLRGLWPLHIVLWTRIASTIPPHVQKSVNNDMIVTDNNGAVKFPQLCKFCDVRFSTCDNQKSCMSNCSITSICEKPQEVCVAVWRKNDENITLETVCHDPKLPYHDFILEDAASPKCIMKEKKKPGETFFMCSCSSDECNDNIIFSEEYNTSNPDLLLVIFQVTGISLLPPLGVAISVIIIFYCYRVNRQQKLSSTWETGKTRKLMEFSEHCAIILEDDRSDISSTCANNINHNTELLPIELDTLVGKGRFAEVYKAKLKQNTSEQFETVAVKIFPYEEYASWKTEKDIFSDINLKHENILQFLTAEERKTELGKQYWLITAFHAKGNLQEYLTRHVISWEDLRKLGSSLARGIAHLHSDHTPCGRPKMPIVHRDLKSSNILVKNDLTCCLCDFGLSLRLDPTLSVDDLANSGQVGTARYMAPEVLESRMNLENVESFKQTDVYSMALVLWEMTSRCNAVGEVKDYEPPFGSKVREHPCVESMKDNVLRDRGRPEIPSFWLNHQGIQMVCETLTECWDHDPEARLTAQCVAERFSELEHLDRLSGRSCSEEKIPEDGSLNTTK
pIC50: −log10 of the molar value.
result-type: pIC50

given-smiles: CN1C(=O)[C@@H](N2CCc3c(nn(Cc4ccccc4)c3Br)C2=O)COc2ccccc21
meas-value: 6.00

* * *

Target: Ephrin type-B receptor 4 (Homo sapiens)
Sequence (P54760 whole entry): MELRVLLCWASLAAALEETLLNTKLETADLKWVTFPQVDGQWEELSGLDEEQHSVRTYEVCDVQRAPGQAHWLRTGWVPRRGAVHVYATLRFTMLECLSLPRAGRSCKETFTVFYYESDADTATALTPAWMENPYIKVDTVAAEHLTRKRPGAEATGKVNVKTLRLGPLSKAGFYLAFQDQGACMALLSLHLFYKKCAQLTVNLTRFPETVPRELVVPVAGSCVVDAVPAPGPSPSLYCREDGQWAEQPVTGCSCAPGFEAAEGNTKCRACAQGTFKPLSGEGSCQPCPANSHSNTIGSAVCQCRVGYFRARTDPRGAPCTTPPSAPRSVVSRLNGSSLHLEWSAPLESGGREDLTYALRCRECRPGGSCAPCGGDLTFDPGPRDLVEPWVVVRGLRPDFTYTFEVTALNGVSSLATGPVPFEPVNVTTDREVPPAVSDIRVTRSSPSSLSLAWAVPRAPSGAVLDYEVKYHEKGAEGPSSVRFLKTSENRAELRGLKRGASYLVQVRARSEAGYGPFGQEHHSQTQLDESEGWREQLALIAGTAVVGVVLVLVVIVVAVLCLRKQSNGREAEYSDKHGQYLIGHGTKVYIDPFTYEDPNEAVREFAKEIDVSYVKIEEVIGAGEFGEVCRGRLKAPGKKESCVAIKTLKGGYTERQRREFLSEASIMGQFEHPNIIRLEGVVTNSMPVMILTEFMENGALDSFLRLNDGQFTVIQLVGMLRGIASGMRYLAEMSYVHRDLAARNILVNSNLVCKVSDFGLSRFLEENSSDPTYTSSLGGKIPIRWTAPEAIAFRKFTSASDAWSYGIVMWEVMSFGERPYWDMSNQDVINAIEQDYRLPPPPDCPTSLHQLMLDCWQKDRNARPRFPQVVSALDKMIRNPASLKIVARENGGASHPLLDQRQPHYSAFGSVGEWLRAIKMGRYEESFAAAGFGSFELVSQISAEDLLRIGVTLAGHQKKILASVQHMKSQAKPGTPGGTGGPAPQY

given-smiles: CN1C(=O)[C@@H](N2CCc3c(nn(Cc4ccccc4)c3Br)C2=O)COc2ccccc21
IC50 / µM: 1

* * *

Target: Serine/threonine-protein kinase PAK 4 (Homo sapiens)
Sequence (O96013 whole entry): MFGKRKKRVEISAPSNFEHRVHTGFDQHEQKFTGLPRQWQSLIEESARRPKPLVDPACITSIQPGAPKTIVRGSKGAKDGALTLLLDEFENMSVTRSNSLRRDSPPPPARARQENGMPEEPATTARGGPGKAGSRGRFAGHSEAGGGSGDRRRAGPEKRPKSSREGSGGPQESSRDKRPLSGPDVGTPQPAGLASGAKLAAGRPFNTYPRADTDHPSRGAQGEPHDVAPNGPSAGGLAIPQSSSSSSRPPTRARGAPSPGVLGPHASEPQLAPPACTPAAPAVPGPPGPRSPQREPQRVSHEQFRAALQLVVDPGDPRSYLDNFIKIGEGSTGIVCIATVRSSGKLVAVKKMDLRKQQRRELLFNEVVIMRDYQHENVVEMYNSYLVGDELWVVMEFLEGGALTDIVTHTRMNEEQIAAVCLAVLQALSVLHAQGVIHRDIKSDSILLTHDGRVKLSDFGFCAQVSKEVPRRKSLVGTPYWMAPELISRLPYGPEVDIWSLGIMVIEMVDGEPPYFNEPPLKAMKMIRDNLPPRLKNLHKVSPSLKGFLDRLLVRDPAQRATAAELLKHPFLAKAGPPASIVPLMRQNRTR
result-type: IC50 (nM)

given-smiles: CN1C(=O)[C@@H](N2CCc3c(nn(Cc4ccccc4)c3Br)C2=O)COc2ccccc21
result-type: IC50
meas-value: 1000

* * *

Target: Protein-tyrosine kinase 6 (Homo sapiens, UniProt Q13882)
Sequence (Q13882 whole entry): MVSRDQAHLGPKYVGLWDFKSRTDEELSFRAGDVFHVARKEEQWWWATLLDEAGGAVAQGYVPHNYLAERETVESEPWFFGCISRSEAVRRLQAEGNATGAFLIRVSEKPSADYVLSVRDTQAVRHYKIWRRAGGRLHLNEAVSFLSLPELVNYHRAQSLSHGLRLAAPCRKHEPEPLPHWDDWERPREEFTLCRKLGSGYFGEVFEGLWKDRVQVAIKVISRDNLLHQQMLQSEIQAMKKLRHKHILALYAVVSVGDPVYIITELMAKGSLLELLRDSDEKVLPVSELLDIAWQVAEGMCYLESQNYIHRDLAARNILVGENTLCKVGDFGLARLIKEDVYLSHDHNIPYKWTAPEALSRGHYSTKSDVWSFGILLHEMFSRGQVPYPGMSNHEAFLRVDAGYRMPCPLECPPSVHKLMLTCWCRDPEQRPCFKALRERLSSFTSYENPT

compound: CN1C(=O)[C@@H](N2CCc3c(nn(Cc4ccccc4)c3Br)C2=O)COc2ccccc21 [TP-030-2]
IC50, nM: 1000

* * *

Molecular target: Ephrin type-A receptor 5 (Homo sapiens)
Sequence (P54756 whole entry): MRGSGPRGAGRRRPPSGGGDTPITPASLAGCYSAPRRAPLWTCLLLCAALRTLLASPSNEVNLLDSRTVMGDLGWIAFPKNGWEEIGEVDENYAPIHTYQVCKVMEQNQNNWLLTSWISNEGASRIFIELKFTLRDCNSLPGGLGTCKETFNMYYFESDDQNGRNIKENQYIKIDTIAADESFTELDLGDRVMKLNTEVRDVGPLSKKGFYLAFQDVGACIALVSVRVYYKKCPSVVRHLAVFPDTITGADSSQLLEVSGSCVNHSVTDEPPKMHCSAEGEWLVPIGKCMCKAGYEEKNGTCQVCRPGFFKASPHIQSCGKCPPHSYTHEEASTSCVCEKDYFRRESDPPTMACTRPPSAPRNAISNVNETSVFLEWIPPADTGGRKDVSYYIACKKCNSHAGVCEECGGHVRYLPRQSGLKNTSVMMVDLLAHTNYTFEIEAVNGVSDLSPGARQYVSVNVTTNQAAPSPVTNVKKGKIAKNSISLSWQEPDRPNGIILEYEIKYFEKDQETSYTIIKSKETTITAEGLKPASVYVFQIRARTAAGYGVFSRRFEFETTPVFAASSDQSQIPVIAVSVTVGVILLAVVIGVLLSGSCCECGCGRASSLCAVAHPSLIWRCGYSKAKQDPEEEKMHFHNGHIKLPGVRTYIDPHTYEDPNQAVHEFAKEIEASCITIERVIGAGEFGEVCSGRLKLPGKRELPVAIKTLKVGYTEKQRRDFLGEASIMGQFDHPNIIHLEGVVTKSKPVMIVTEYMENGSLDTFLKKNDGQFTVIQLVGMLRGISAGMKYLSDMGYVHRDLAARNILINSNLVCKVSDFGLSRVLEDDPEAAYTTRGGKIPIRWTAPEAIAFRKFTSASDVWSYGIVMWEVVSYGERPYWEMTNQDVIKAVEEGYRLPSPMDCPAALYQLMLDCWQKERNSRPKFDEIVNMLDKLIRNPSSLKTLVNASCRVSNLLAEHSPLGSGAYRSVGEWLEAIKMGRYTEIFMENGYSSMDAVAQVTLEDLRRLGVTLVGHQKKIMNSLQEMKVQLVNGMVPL
pIC50: −log10 of the molar value.
result-type: pIC50

given-smiles: CN1C(=O)[C@@H](N2CCc3c(nn(Cc4ccccc4)c3Br)C2=O)COc2ccccc21
assayed-system: Ephrin type-A receptor 5 (Homo sapiens)
result-type: pIC50
meas-value: 6.00

* * *

Target: Serine/threonine-protein kinase 32B (Homo sapiens)
Sequence (Q9NY57 whole entry): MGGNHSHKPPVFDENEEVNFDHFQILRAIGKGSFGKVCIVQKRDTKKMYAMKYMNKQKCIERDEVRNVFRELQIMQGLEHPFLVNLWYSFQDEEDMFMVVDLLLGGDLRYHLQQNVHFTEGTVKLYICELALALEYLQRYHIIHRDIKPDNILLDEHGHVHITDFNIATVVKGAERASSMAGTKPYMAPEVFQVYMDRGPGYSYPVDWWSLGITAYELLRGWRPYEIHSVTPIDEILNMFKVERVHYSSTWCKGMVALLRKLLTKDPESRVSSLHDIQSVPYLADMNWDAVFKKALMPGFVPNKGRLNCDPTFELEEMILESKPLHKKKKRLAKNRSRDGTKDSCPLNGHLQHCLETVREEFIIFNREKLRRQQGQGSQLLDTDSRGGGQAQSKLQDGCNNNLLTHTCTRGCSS
pIC50: −log10 of the molar value.

molecule: CN1C(=O)[C@@H](N2CCc3c(nn(Cc4ccccc4)c3Br)C2=O)COc2ccccc21 [TP-030-2]
pIC50: 6.00
